System: Mus musculus
Assay: Anticonvulsant activity in CF-1 albino mouse assessed as protection against maximal electroshock-induced seizures at 300 mg/kg, ip after 4 hrs
Type: functional, organism-based
Parameters: dose 300 mg/kg
Activity calls are given as the source filed them. The calls are words filed in the database; no cut-off is given here.
property_name: Activity

Some compounds with known Activity results, for comparison:
CC1(C)CC(=O)N(CN2CCN(c3ccc(F)cc3)CC2)C1=O: inactive
CC1(C)CC(=O)N(CN2CCN(c3ccccc3Cl)CC2)C1=O: inactive
Cc1ccccc1N1CCN(CN2C(=O)CC(C)(c3ccccc3)C2=O)CC1 (stereo not given): inactive
CC1(c2ccccc2)CC(=O)N(CN2CCN(c3ccccc3Cl)CC2)C1=O (stereo not given): inactive
CC1(C)CC(=O)N(CN2CCN(c3cccc(Cl)c3)CC2)C1=O: inactive
Cc1cccc(N2CCN(CN3C(=O)CC(C)(C)C3=O)CC2)c1: inactive

Please indicate Activity recorded for COc1ccccc1N1CCN(CN2C(=O)CC(C)(C)C2=O)CC1 inactive

Please indicate Activity recorded for Cc1ccccc1N1CCN(CN2C(=O)CC(C)(C)C2=O)CC1 inactive

Please indicate Activity recorded for CC1(C)CC(=O)N(CN2CCN(c3ccc(Cl)c(Cl)c3)CC2)C1=O inactive

Please indicate Activity recorded for CC1(C)CC(=O)N(CN2CCN(c3ccc(Cl)cc3)CC2)C1=O inactive
